B1: LINE1-full (parent)
chain: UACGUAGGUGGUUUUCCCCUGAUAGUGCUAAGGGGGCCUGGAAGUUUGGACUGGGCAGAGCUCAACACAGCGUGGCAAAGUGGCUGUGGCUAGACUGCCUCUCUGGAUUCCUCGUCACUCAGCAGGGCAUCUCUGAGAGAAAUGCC

Variants of: B1
Test protocol: self-cleavage, relative activity (ratio to wild type); higher = more cleavage; in vitro, sequencing; the parent is a self-cleaving ribozyme

- Mutation notation: "G53A C146U"
  self-cleavage: 1.31
- Mutation notation: "U85G U134C"
  self-cleavage: 0.16
- Mutation notation: "A65G G139A"
  self-cleavage: 0.06
- Mutation notation: "U73C G122A"
  self-cleavage: 1.19
- Mutation notation: "A59C U115C"
  self-cleavage: 1.55
- Mutation notation: "A30G G135A"
  self-cleavage: 1.4
- Mutation notation: "U81C A124G"
  self-cleavage: 1.25
- Mutation notation: "C38U G60A"
  self-cleavage: 0.05
- Mutation notation: "U47C A138G"
  self-cleavage: 1.53
- Mutation notation: "A30U G74C"
  self-cleavage: 1.27
- Mutation notation: "U12A C16A"
  self-cleavage: 0.97
- Mutation notation: "U12A U143A"
  self-cleavage: 1.28
- Mutation notation: "A30C G58U"
  self-cleavage: 0.09
- Mutation notation: "C71U U143C"
  self-cleavage: 0.64
- Mutation notation: "G34C U62A"
  self-cleavage: 0.04
- Mutation notation: "U115C G135A"
  self-cleavage: 2.23
- Mutation notation: "U15G U104C"
  self-cleavage: 0.89
- Mutation notation: "U23C A31U"
  self-cleavage: 0.77
- Mutation notation: "U102C A124G"
  self-cleavage: 1.11
- Mutation notation: "U85A U96A"
  self-cleavage: 0.12
- Mutation notation: "G35A U104C"
  self-cleavage: 1.42
- Mutation notation: "G33C U119C"
  self-cleavage: 1.8
- Mutation notation: "G88A C146U"
  self-cleavage: 0.07
- Mutation notation: "A79U G125A"
  self-cleavage: 1.6
- Mutation notation: "C103U A136G"
  self-cleavage: 1.39
- Mutation notation: "A31U U132C"
  self-cleavage: 1.39
- Mutation notation: "A31U C101U"
  self-cleavage: 0.58
- Mutation notation: "C37U U115C"
  self-cleavage: 1.67
- Mutation notation: "U20C A136G"
  self-cleavage: 1.26
- Mutation notation: "G41A U85A"
  self-cleavage: 0
- Mutation notation: "U15C G86A"
  self-cleavage: 0.06
- Mutation notation: "U87C A94G"
  self-cleavage: 0.14
- Mutation notation: "U81A A140G"
  self-cleavage: 1.95
- Mutation notation: "U5C C71U"
  self-cleavage: 0.68
- Mutation notation: "A2G U134G"
  self-cleavage: 1.21
- Mutation notation: "A42G C101A"
  self-cleavage: 0.95
- Mutation notation: "A117G U134C"
  self-cleavage: 1.73
- Mutation notation: "U15A U87C"
  self-cleavage: 0.28
- Mutation notation: "U14C G144A"
  self-cleavage: 1.13
- Mutation notation: "C133U A140G"
  self-cleavage: 1.05
- Mutation notation: "U9C G33A"
  self-cleavage: 1.01
- Mutation notation: "G60A A124U"
  self-cleavage: 0.02
- Mutation notation: "C38G U52A"
  self-cleavage: 1.04
- Mutation notation: "A77G A94G"
  self-cleavage: 0.68
- Mutation notation: "C28U A92U"
  self-cleavage: 0.43
- Mutation notation: "G60A A92G"
  self-cleavage: 0.03

Hey, just so you know, these numbers are from the RNAGym collection of RNA variant scans (doi:10.7554/elife.90254).
